Biological target: MMP-2
Assay: cell-based or functional assay
Catalogue of IC50 for the inhibition of MMPs using a fluorescein conjugated gelatin values
measuredMetric: IC50 for the inhibition of MMPs using a fluorescein conjugated gelatin (µM)

binder="ENLHLPLPLL [ENLHLPLPLL (SEQ ID NO:19)]" measured=200
binder="NLHLPLPLL [NLHLPLPLL (SEQ ID NO:12)]" measured=450
binder="ENLLRFFVAPFPEVFG [ENLLRFFVAPFPEVFG (SEQ ID NO:22)]" measured=425

Measured values drawn from patent US20050187155A1 for this set.
